Value source: patent US20230096978A1

Assay: Pharmacokinetic test after single tail vein injection
Assay type: in vivo
Settings: SD (Sprague-Dawley), rat, plasma, iv; SD rats, single tail vein injection 2 mg/kg, n = 3
readout.label: AUC(0-t)
Reply with the number, then its unit.

• c1ccc([C@]2(CCNCc3coc4ccccc34)CCOC3(CCCC3)C2)nc1 [Example 2] = 379 ng·h/mL
• COc1ccsc1CNCC[C@@]1(c2ccccn2)CCOC2(CCCC2)C1 [TRV130, oliceridine, reference compound] = 319 ng·h/mL
• c1ccc([C@]2(CCNCc3coc4ccc(O[C@@H]5CCOC5)cc34)CCOC3(CCCC3)C2)nc1 [Example 3] = 532 ng·h/mL
• COc1ccc2occ(CNCC[C@@]3(c4ccccn4)CCOC4(CCCC4)C3)c2c1 [Example 1] = 585 ng·h/mL

// switching to the query compound
**Q:** Request the reported AUC(0-t) associated with Fc1ccc([C@]2(CCNCc3ccccc3-c3ccncc3)CCOC3(CCCC3)C2)cc1 [Example 4]
**A:** 563 ng·h/mL
